experimentSummary: Phase 1a multiple ascending dose study (oral solution): plasma pharmacokinetics
Type: in vivo, human
testSettings: human, plasma, oral, 60 mg, Cohort 5, 60 mg once daily; Day 7; read-out: Cmax, mean
parameter: Cmax (ng/mL)

>  <structureNotation>
CC(C)(C)OC(=O)N1CCN(Cc2ccn(Cc3ccc(Cl)cc3)c(=O)c2O)CC1

>  <experimentalResult>
6.31

$$$$

---

experimentSummary: Compound 1 pH-solubility at 22° C.
Format: physicochemical
testSettings: citrate buffer, aqueous buffer, thermodynamic from solid; pH 4 (Citrate 25 mM, l = 0.1), pH 3.9, 22° C.

>  <structureNotation>
CC(C)(C)OC(=O)N1CCN(Cc2ccn(Cc3ccc(Cl)cc3)c(=O)c2O)CC1

>  <uom>
µg/mL

>  <solubility>
94

$$$$
